- Assay protocol: Antiproliferative activity against human HeLa cells after 72 hrs by XTT assay
- Format: functional, cell-based
Quantity kind: pIC50
On this scale, pIC50 is minus log10 of a concentration expressed in M (mol/L).

Some solved cases for reference:
- Structure smiles: "Cc1[nH]c2c(c1-c1nnc(-c3ccccc3)o1)Cc1cc(C3CC3)ccc1-2"
  pIC50: 5.80
- Structure smiles: "Cc1[nH]c2c(c1-c1nnc(-c3ccccc3)o1)Cc1ccccc1-2"
  pIC50: 7.30

Here is another compound to look at.
Prompt: Give its pIC50 value. Item: Cc1ccc2c(c1)Cc1c-2[nH]c(C)c1-c1nnc(-c2ccccc2)o1
Completion: 5.28
